From: patent US20230355720A1

target of assay: human GCG receptor (human, UniProt P47871 26-477)
Sequence (P47871 26-477): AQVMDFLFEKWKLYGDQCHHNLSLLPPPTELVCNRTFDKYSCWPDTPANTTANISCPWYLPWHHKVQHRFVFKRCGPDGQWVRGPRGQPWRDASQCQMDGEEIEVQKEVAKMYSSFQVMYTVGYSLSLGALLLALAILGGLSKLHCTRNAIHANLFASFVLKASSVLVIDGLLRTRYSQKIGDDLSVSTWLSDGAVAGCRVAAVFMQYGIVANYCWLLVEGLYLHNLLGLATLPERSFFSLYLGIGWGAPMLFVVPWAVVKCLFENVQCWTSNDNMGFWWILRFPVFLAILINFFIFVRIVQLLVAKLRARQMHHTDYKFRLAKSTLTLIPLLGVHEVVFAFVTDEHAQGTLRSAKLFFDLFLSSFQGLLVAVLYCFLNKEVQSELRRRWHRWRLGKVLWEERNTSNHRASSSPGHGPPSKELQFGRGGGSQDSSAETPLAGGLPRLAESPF
assay: cell-based or functional assay
Bridge positions count the residues as written; N and C are the ends. Square brackets hold non-standard residues; d marks the D form. Ends that are not written are not given here. * marks the point of attachment. Acetyl(2-(4-imidazolyl)) = O=C(Cc1c[nH]cn1)*; Aib = CC(C)(N)C(=O)O
Outcome: true for In vitro activity (%) compared with native peptide, vs Glucagon of at least 1%; false for anything lower.

Check out these entries, answers already filled in.
Query: Kindly determine if In vitro activity (%) compared with native peptide, vs Glucagon recorded for H[Aib]QGTFTSDVSSYLLGQQQKEFIAWLVKGGGPSSGAPPPSC [triple agonist of SEQ ID NO: 5] is above or exactly 1%.
Response: false

Query: Kindly determine if In vitro activity (%) compared with native peptide, vs Glucagon recorded for [Acetyl(2-(4-imidazolyl))][Aib]QGTFTSDYSIAMDEKHCKDFVNWLLNTK (bridge 16-20; not fully specified) [triple agonist of SEQ ID NO: 60] is above or exactly 1%.
Response: false

Query: Kindly determine if In vitro activity (%) compared with native peptide, vs Glucagon recorded for {Acetyl(2-(4-imidazolyl))}-[Aib]QGTFTSDYSKCLDEKRAKEFVQWLLDHHPSSGQPPPS (bridge 15-19) [triple agonist of SEQ ID NO: 74] is above or exactly 1%.
Response: false

Query: Kindly determine if In vitro activity (%) compared with native peptide, vs Glucagon recorded for Y[Aib]QGTFTSDYSKYLDERACKDFVQWLLDHHPSSGQPPPS (bridge 16-20) [triple agonist of SEQ ID NO: 71] is above or exactly 1%.
Response: true

Query: Kindly determine if In vitro activity (%) compared with native peptide, vs Glucagon recorded for {Acetyl(2-(4-imidazolyl))}-[Aib]QGTFTSDYSKYLDEKRQKEFVQWLLDTC (bridge 15-19; numbers in words are those of the source; also: ring between positions 16 and 20, type not given here) [triple agonist of SEQ ID NO: 82] is above or exactly 1%.
Response: true

New cases:
Query: Kindly determine if In vitro activity (%) compared with native peptide, vs Glucagon recorded for H[Aib]QGTFTSDYSKYLDEKRQKEFVQWLLDTKC (bridge 16-20; also: ring between positions 16 and 20, type not given here) [triple agonist of SEQ ID NO: 78] is above or exactly 1%.
Response: true

Query: Kindly determine if In vitro activity (%) compared with native peptide, vs Glucagon recorded for Y[Aib]QGTFTSDYSKALDEKAAKEFVNWLLDQHPSSGQPPPSC (bridge 16-20) [triple agonist of SEQ ID NO: 101] is above or exactly 1%.
Response: true

Query: Kindly determine if In vitro activity (%) compared with native peptide, vs Glucagon recorded for H[Aib]QGTFTSDKSKYLDECAAQDFVQWLLDGGPSSGAPPPS (not fully specified) [triple agonist of SEQ ID NO: 41] is above or exactly 1%.
Response: false

Query: Kindly determine if In vitro activity (%) compared with native peptide, vs Glucagon recorded for Y[Aib]QGTFTSDYSKYLDEKRAKEFVQWLLDHCPSSGQPPPS (bridge 16-20) [triple agonist of SEQ ID NO: 96] is above or exactly 1%.
Response: true
